Target: HLA-A*69:01
Assay: IEDB peptide-MHC binding, purified MHC/direct/fluorescence; filed as Kd, often an IC50 or EC50 that approximates it; bounds were set here for any values at or beyond the usual limits of such assays
Conditions: source organism: Mycobacterium tuberculosis
parameterMeasured: Kd (nM)
Kindly answer with a numeric value in nM, unit omitted.

In the examples that follow, each entry is paired with its recorded Kd.
RPAPATGAL :: 739
YLAENTFVV :: 15.7

Form: sequence = YPACEAIGL ; Kd = 90.5

---

Target: HLA-B*44:03
Assay: IEDB peptide-MHC binding, purified MHC/competitive/fluorescence; bounds were set here for any values at or beyond the usual limits of such assays
Conditions: source organism: Ateles geoffroyi
parameterMeasured: IC50

Form: sequence = LPADPASVL ; IC50 = ≥ 20 µM

---

Reported Kd by item:
Molecular target: HLA-A*32:01
Assay: IEDB peptide-MHC binding, purified MHC/competitive/radioactivity; filed as Kd, often an IC50 or EC50 that approximates it; bounds were set here for any values at or beyond the usual limits of such assays
Settings: source organism: Vaccinia virus Copenhagen
Output should be the measured figure followed by the unit it is expressed in.

In the examples that follow, each entry is paired with its recorded Kd.
ILYYLSAKI :: 8.87 nM
SLNSIFNTF :: 13.8 nM

// next entry
Form: sequence = LMRSICVSI ; Kd = 380 nM

---

Molecular target: HLA-A*68:02
Experiment: IEDB peptide-MHC binding, purified MHC/competitive/radioactivity; filed as Kd, often an IC50 or EC50 that approximates it; bounds were set here for any values at or beyond the usual limits of such assays
Conditions: source organism: Lymphocytic choriomeningitis virus (strain Armstrong) (clone 53b)
parameterMeasured: Kd (nM)
Kindly answer with a numeric value in nM, unit omitted.

Form: sequence = ALPHIIDEV ; Kd = 179

---

Reported pKd by item:
Target: HLA-B*45:01
Experiment: IEDB peptide-MHC binding, purified MHC/competitive/radioactivity; filed as Kd, often an IC50 or EC50 that approximates it; bounds were set here for any values at or beyond the usual limits of such assays
Settings: source organism: Mammarenavirus lassaense
pKd: −log10 of the molar value.

SESDLEFSW :: 5.78
GEPKTVKVL :: ≤ 4.11

// next entry
Form: sequence = ADNLITEML ; pKd = ≤ 4.11

---

Reported Kd by item:
Molecular target: HLA-A*26:01
Assay: IEDB peptide-MHC binding, purified MHC/competitive/radioactivity; filed as Kd, often an IC50 or EC50 that approximates it; bounds were set here for any values at or beyond the usual limits of such assays
Details: source organism: SARS coronavirus Tor2
Kindly answer with a numeric value in nM, unit omitted.

In the examples that follow, each entry is paired with its recorded Kd.
FSNSGADVLY :: 3560
FVSLAIDAY :: 1730
FYTTTGIGY :: 153
FSSRMYCSFY :: 23

Form: sequence = FFFVYENAF ; Kd = 9240

Form: sequence = TVAYFNMVY ; Kd = 14.2

Form: sequence = PVSIINNAVY ; Kd = 1580

Form: sequence = HTSSMRGVYY ; Kd = 52.7

Form: sequence = FMGRIRSVY ; Kd = 2240

Form: sequence = TNSVIIMAY ; Kd = 17300

Form: sequence = VFHLYLQYI ; Kd = 90.7

---

Biological target: HLA-A*24:02
Experiment: IEDB peptide-MHC binding, purified MHC/competitive/radioactivity; filed as Kd, often an IC50 or EC50 that approximates it; bounds were set here for any values at or beyond the usual limits of such assays
Conditions: source organism: Mammarenavirus lassaense
parameterMeasured: Kd

Form: sequence = ICGGTIDAY ; Kd = ≥ 77.5 µM

---

Target: HLA-A*24:02
Assay: IEDB peptide-MHC binding, purified MHC/competitive/radioactivity; filed as Kd, often an IC50 or EC50 that approximates it; bounds were set here for any values at or beyond the usual limits of such assays
Conditions: source organism: Lassa virus Josiah
parameterMeasured: pKd
Value format note: pKd is -log10 of concentration (mol/L); just state the number.

YQPSSGCYI :: 5.14

// next entry
// assay HLA-A*24:02, entry LYNFATCGLV , pKd value = 4.92

---

Target: HLA-B*18:01
Test: IEDB peptide-MHC binding, purified MHC/competitive/fluorescence; filed as Kd, often an IC50 or EC50 that approximates it; bounds were set here for any values at or beyond the usual limits of such assays
Conditions: source organism: Lechiguanas virus
parameterMeasured: Kd

KLKSVGKAY :: ≥ 20 µM

// next entry
Form: sequence = SCINGQCPY ; Kd = ≥ 20 µM

---

Biological target: HLA-A*31:01
Test: IEDB peptide-MHC binding, purified MHC/direct/fluorescence; filed as Kd, often an IC50 or EC50 that approximates it; bounds were set here for any values at or beyond the usual limits of such assays
Details: source organism: Mycobacterium tuberculosis
parameterMeasured: Kd (µM)
Kindly answer with a numeric value in µM, unit omitted.

// assay HLA-A*31:01, entry KVMVICYAY , Kd value = 4.16

---

Biological target: HLA-A*29:02
Assay: IEDB peptide-MHC binding, purified MHC/competitive/fluorescence; filed as Kd, often an IC50 or EC50 that approximates it; bounds were set here for any values at or beyond the usual limits of such assays
Details: source organism: Escherichia coli HS
parameterMeasured: pKd
Value format note: pKd is -log10 of concentration (mol/L); just state the number.

Form: sequence = VVIPTAALQ ; pKd = 6.13

---

Molecular target: HLA-A*29:02
Test: IEDB peptide-MHC binding, purified MHC/competitive/radioactivity; filed as Kd, often an IC50 or EC50 that approximates it; bounds were set here for any values at or beyond the usual limits of such assays
Details: source organism: Mammarenavirus lassaense
parameterMeasured: pKd
Value format note: pKd is -log10 of concentration (mol/L); just state the number.

// assay HLA-A*29:02, entry FYSQESPQSY , pKd value = 8.75

---

Target: HLA-A*01:01
Assay: IEDB peptide-MHC binding, purified MHC/direct/fluorescence; filed as Kd, often an IC50 or EC50 that approximates it; bounds were set here for any values at or beyond the usual limits of such assays
Conditions: source organism: SARS-CoV1
Reported pKd by item:
Value format note: pKd is -log10 of concentration (mol/L); just state the number.

FMGRIRSVY :: 5.23

Form: sequence = FADINGKLY ; pKd = 6.72

---

Target: HLA-A*68:02
Test: IEDB peptide-MHC binding, purified MHC/competitive/fluorescence; filed as Kd, often an IC50 or EC50 that approximates it; bounds were set here for any values at or beyond the usual limits of such assays
Settings: source organism: Shigella flexneri 5 str. 8401
parameterMeasured: pKd
Value format note: pKd is -log10 of concentration (mol/L); just state the number.

Form: sequence = FGALFMWLL ; pKd = 6.13

---

Molecular target: HLA-A*24:02
Assay: IEDB peptide-MHC binding, purified MHC/competitive/fluorescence; filed as Kd, often an IC50 or EC50 that approximates it; bounds were set here for any values at or beyond the usual limits of such assays
Conditions: source organism: Bacillus thuringiensis serovar tochigiensis BGSC 4Y1
pKd: −log10 of the molar value.
parameterMeasured: pKd

Form: sequence = KYAKFFQNF ; pKd = ≥ 10.00

---

Reported Kd by item:
Target: HLA-A*26:01
Assay: IEDB peptide-MHC binding, purified MHC/competitive/fluorescence; filed as Kd, often an IC50 or EC50 that approximates it; bounds were set here for any values at or beyond the usual limits of such assays
Settings: source organism: Giardia lamblia ATCC 50803

AILAGEHKC :: ≥ 20 µM
ISKANWMTY :: ≥ 20 µM

// next entry
Form: sequence = IANTTDHFF ; Kd = ≥ 20 µM

---

Target: HLA-A*68:02
Experiment: IEDB peptide-MHC binding, purified MHC/direct/fluorescence; filed as Kd, often an IC50 or EC50 that approximates it; bounds were set here for any values at or beyond the usual limits of such assays
Details: source organism: Cryptosporidium parvum Iowa II
parameterMeasured: Kd

Form: sequence = YLAKLFLDH ; Kd = ≥ 20 µM

---

Molecular target: HLA-A*03:01
Assay: IEDB peptide-MHC binding, purified MHC/direct/fluorescence; filed as Kd, often an IC50 or EC50 that approximates it; bounds were set here for any values at or beyond the usual limits of such assays
Settings: source organism: Yersinia pestis Antiqua
parameterMeasured: pKd
Value format note: pKd is -log10 of concentration (mol/L); just state the number.

Form: sequence = WIYDPRNQK ; pKd = 7.53

---

Target: HLA-B*58:01
Test: IEDB peptide-MHC binding, purified MHC/direct/fluorescence; filed as Kd, often an IC50 or EC50 that approximates it; bounds were set here for any values at or beyond the usual limits of such assays
Settings: source organism: Influenza A virus (A/chicken/Hubei/wk/1997(H5N1))
parameterMeasured: Kd

Form: sequence = MKWMMAMKY ; Kd = ≥ 20 µM

Measured values drawn from the Immune Epitope Database (IEDB) for this set.
